Values compiled from paper PMC12449371.

Overview of recorded IC50 for various compounds
target or test system: human BChE (Homo sapiens, UniProt P06276)
Construct: purification process was performed using 0 Rh (−) human blood serum from the Hacettepe Hospital blood bank; from tissue; host or cells: human blood serum (0 Rh(−), Hacettepe Hospital blood bank)
Sequence (P06276 29-602): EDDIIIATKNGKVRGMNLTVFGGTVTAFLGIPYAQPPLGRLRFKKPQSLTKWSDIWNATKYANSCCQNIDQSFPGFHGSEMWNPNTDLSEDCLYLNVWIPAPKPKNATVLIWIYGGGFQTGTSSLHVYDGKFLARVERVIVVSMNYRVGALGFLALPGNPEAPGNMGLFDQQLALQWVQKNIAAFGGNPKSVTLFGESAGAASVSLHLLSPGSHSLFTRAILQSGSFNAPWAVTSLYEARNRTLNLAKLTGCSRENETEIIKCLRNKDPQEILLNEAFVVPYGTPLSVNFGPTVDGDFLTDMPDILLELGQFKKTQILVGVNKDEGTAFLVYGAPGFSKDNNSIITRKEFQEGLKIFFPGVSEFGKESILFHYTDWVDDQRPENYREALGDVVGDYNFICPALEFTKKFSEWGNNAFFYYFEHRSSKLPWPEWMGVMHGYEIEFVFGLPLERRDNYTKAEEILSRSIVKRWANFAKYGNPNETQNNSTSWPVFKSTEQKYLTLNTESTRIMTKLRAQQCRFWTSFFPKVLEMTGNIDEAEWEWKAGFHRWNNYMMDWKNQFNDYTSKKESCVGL
protocol description: IC50 determination, modified 96-microtiter plate Ellman assay
Type: biochemical
reported conditions: purified human serum BChE, 0.5 mM BTCh, 50 mM MOPS pH 7.4, 37 °C; Table 2 head prints no unit, µM; read-out: IC50
Protocol: The butyrylcholinesterase purification process was performed using 0 Rh (−) human blood serum from the Hacettepe Hospital blood bank, as described in a previous study (Gok et al. [2023]). […] The IC₅₀ was determined using the modified 96-microtiter plate Ellman assay (George and Abernethy [1983]), using a total volume of 200 µL. […] The absorbance readings were recorded at a wavelength of 412 nm for a period of 10 min using the Spectramax M2 microplate reader (Molecular Devices, USA). […]
Note: unit µM is implicit; provide only the numeric part.

Consider the following illustrative entries.
CC/C=C\C/C=C\C/C=C\CCCCCCCC(=O)O [α-Linolenic acid, alpha-linolenic acid]
5810
CCCCC/C=C\C/C=C\CCCCCCCC(=O)O [Linoleic acid, linoleic acid]
5910
CCCCCCCC/C=C\CCCCCCCC(=O)O [Oleic acid, oleic acid]
2370

For the next question, use this compound.
Under human BChE (Homo sapiens, UniProt P06276): report IC50 of CCCCC/C=C\C/C=C\C/C=C\C/C=C\CCCC(=O)O [Arachidonic acid, arachidonic acid] .
611

---

target or test system: human BChE (Homo sapiens)
Construct: purification process was performed using 0 Rh (−) human blood serum from the Hacettepe Hospital blood bank; from tissue; host or cells: human blood serum (0 Rh(−), Hacettepe Hospital blood bank)
protocol description: Inhibition kinetics, Ellman method with varying BTCh substrate
Assay type: biochemical
reported conditions: BTCh as substrate (1.0-0.05 mM), three fatty acid concentrations; read-out: Ki
// reported pKi for each item listed
Interpret pKi as the negative base-10 log of the concentration measured in mol/L.

As a guide, the following entries are already answered.
CC/C=C\C/C=C\C/C=C\CCCCCCCC(=O)O
3.18
CCCCC/C=C\C/C=C\CCCCCCCC(=O)O
2.85
CCCCC/C=C\C/C=C\C/C=C\C/C=C\CCCC(=O)O
3.33

Turning now to a further compound:
Please give measured pKi of the following entry: CCCCCCCC/C=C\CCCCCCCC(=O)O
3.49
